Test system: zebrafish embryos and larvae
ASSAY_SETUP: exposure for 24 hours beginning at 2–4 cell stage; highest concentration with no phenotypic abnormalities; followed to 9 dpf
Task for the reader: assign each of the following molecules its reported Maximum-tolerated concentration (MTC).
All answers are understood in %, so give the number only.

Quick check: Maximum-tolerated concentration (MTC) of CC(O)COC[C@H]1O[C@@H]2O[C@H]3[C@H](O)[C@@H](O)[C@@H](O[C@H]4[C@H](O)[C@@H](O)[C@@H](O[C@H]5[C@H](O)[C@@H](O)[C@@H](O[C@H]6[C@H](O)[C@@H](O)[C@@H](O[C@H]7[C@H](O)[C@@H](O)[C@@H](O[C@H]8[C@H](O)[C@@H](O)[C@@H](O[C@H]1[C@H](O)[C@H]2O)O[C@@H]8COCC(C)O)O[C@@H]7COCC(C)O)O[C@@H]6COCC(C)O)O[C@@H]5COCC(C)O)O[C@@H]4COCC(C)O)O[C@@H]3COCC(C)O (stereo partly drawn) [Cyclodextrin (HPBCD), 2-hydroxypropyl-beta-cyclodextrin] ?
1

Try the molecule CCO
1

Try the molecule CN(C)C=O [Dimethyl formamide (DMF), Dimethyl formamide]
0.5

Try the molecule CO
1.5
